- target.entity: PDE10 from pig striatum (Sus scrofa, UniProt A0A287B941)
Each entry below carries its reported IC50.
property.measured: IC50

> print(dat)
                                   molecule  property.measured  observed.result
1  COc1ccc2nc(C#N)c3c(C)nc(C4CCCCC4)n3c2c1 [Example 8]               IC50     10 to 100 nM
2  CCCc1nc(C)c2c(C#N)nc3ccc(F)cc3n12 [Example 1]               IC50     10 to 100 nM
3  CCc1nc(C)c2c(NS(C)(=O)=O)nc3ccccc3n12 [Example 2]               IC50         ≥ 100 nM
4  CCCc1nc(C)c2c(NS(C)(=O)=O)nc3ccc(F)cc3n12 [Example 4]               IC50     10 to 100 nM
5  Cc1nc(C2CCCCC2)n2c1c(NS(C)(=O)=O)nc1ccc(OCc3ccc4ccccc4n3)cc12 [Example 13]               IC50          ≤ 10 nM
